Measured LD50 (normal) of individual entries
- Test system: Normal WI38 cells
- Procedure details: Cell viability of normal WI38 cells at 72 h (LD50)
- Format: cell-based
- Setup conditions: normal WI38 cells, Table 1
- Experimental: Normal WI38 cells (FIG. 1A), IR-induced senescent cells (FIG. 1B) and replicative senescent cells (FIG. 1C) were incubated with increasing concentrations of PL. At 72 hours post-treatment cell viability was measured. […] At 72 hours post-treatment cell viability was measured. Normal WI38 cells and IR-induced senescent cells were incubated with increasing concentrations of compounds of Formula I and Formula II. At 72 hours post-treatment cell viability was measured and LD50 was calculated.
Measurement name: LD50 (normal) (µM)

- CC(=O)OC[C@H]1O[C@@H]([S-])[C@H](OC(C)=O)[C@@H](OC(C)=O)[C@@H]1OC(C)=O.CCP(CC)CC.[Au+] [Auranofin, reference compound]: 5.13
- CCCCS(=N)(=O)CCC(N)C(=O)O (stereo not shown) [Buthionine sulfoximine, reference compound]: 2340.19
- COc1cc(/C=C/C(=O)N2CCC=CC2=O)cc(OC)c1OC [PL, reference compound]: 24.25
- CCCCCCCCCC[P+](c1ccccc1)(c1ccccc1)c1ccccc1 [Decyl-triphenylphosphonium, reference compound]: 1.41

====

- System: IR-induced senescent WI38 cells
- Procedure details: Cell viability of IR-induced senescent WI38 cells at 72 h (LD50)
- Assay type: cell-based
- Setup conditions: ratio of LD50 values, Table 2
# label = YES if Ratio (NSC/SC) >= 2 else NO

• CCCOc1c(OC)cc(/C=C/C(=O)N2CCC=CC2=O)cc1OC = NO
• O=C(C#Cc1ccccc1)N1CCC=CC1=O = YES
• COc1cc(/C=C/C(=O)N2CCC=CC2=O)cc(OC)c1OCCN(C)CCOc1c(OC)cc(/C=C/C(=O)N2CCC=CC2=O)cc1OC = NO
• COc1cc(C#CC(=O)N2CCC=CC2=O)cc(OC)c1OC = YES
• C=C1CCCN(S(=O)(=O)/C=C/c2ccccc2)C1=O = YES
• COc1cc(/C=C(\Br)C(=O)N2CCC=CC2=O)c(Br)c(OC)c1OC = YES
• COc1cc(/C=C/C(=O)N2CCC=CC2=O)cc(OC)c1OCCN(C)C = YES
